- Tested on: Bacillus subtilis
- Assay Info: Antibacterial agents against Bacillus subtilis PS380 assessed as absence of growth measured after 18 hrs by micro-dilution method
- Assay type: functional
Each item that follows carries a reported MIC.
Your answer is read as µg/mL, so omit the unit and give the number.

Some molecules with known MIC results, for comparison:
{"columns": ["Smiles String", "MIC (µg/mL)"],
 "data": [
  ["Cc1n(C2CCCCC2)c2c([n+]1Cc1ccccc1)C(=O)c1ccccc1C2=O.[Br-]", 1.56],
  ["CCCCCCn1c2c([n+](CCCCCC)c1C)C(=O)c1ccccc1C2=O.[Br-]", 1.56],
  ["Cc1n(CC2CC2)c2c([n+]1Cc1ccccc1)C(=O)c1ccccc1C2=O.[Br-]", 1.56],
  ["CCCCCCCCn1c2c([n+](Cc3ccco3)c1C)C(=O)c1ccccc1C2=O.[Br-]", 0.39]
]}

// next item, MIC requested
Would you kindly share the measured MIC for CCCCCCCn1c2c([n+](CCCCCCC)c1C)C(=O)c1ccccc1C2=O.[Br-] ?
0.39
